assay: chemical genetic growth profiling, strain panel (AID 1159580);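 also: tested at 20 µM; growth read once vehicle control cultures reached saturation at 30 °C; 1 = growth at the plate median or of vehicle wells; lower values mean less growth of the strain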; conditions: S. cerevisiae deletion strains, growth OD, locus YKL193C, strain SDS22
Hit rate of the full screen: of about 5,500 compounds, about 2,000 (36%) were called active. About 18% were inconclusive and are not listed. Rule as the data show it: active = normalized growth mostly below about 0.91 (no sharp cut-off); inconclusive = no clear call, values can overlap the other calls; inactive = mostly above about 0.92. The list shows a part of the results.
Outcome codes: True for active, False for inactive

smiles_data	cat
O=C1c2cccc3c(Sc4ccccc4)ccc(c23)C(=O)N1NCCO	False
CC(C)(C)c1cc(C(=O)Nc2ccc3c(c2)OCO3)n(Cc2ccc(F)cc2)n1	False
CC(C)(C)c1cc(C(=O)NNc2cccc(Cl)c2)n(Cc2ccccc2)n1	False
O=C(NOC(=O)c1ccccc1)c1ccccc1	True
Cc1onc(-c2c(Cl)cccc2Cl)c1C(=O)O/N=C(/N)Cc1ccc(C(C)(C)C)cc1	False
Cc1onc(-c2c(F)cccc2Cl)c1/C(N)=N\OC(=O)c1ccc(C(C)(C)C)cc1	False
CSc1sc(C(=O)Sc2ccccc2)cc1S(=O)(=O)C(C)C	False

---

experiment: chemical genetic growth profiling, strain panel (AID 1159580);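 also: tested at 20 µM; growth read once vehicle control cultures reached saturation at 30 °C; 1 = growth at the plate median or of vehicle wells; lower values mean less growth of the strain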; settings: S. cerevisiae deletion strains, growth OD, locus YLR357W, strain rsc2, stronger effect = lower value
Hit rate of the full screen: of about 5,500 compounds, about 2,000 (36%) were called active. Inconclusive results (about 18%) are left out. This is one part of the list.
As shown below, each of these compounds has a reported normalized growth value.

compound	normalized growth
CC(=O)Nc1ccc(S(=O)(=O)Nc2onc(C)c2C)cc1	0.951 (inactive)
C/C=C\C1=C(C(=O)O)N2C(=O)C(NC(=O)C(N)c3ccc(O)cc3)C2SC1 (stereo unspecified)	1.01 (inactive)
C=C1c2c(Cl)ccc(O)c2C(O)=C2C(=O)[C@]3(O)C(O)=C(C(N)=O)C(=O)[C@@H](N(C)C)[C@@H]3[C@@H](O)[C@H]12	0.895 (inactive)
CCOC(=O)[C@H](CCc1ccccc1)N[C@@H](C)C(=O)N1CCC[C@H]1C(=O)O	0.938 (inactive)
CCCc1cc(=O)[nH]c(=S)[nH]1	1.05 (inactive)
COc1ccccc1OCC(O)CO (stereo unspecified)	1.03 (inactive)
NC1=NCCN1CC(=O)O	1.03 (inactive)
Cc1cc(=O)[nH]c(=S)[nH]1	0.944 (inactive)
C/C1=C/CC(C)(C)/C=C/C/C(C)=C/CC1	0.968 (inactive)
CC(=O)c1cc(CC=C(C)C)c(O)c(CC=C(C)C)c1	1.04 (inactive)
Oc1c(Cl)cc(Cl)cc1Sc1cc(Cl)cc(Cl)c1O	0.119 (active)

---

This listing pairs compounds with measured normalized growth.
test: chemical genetic growth profiling, strain panel (AID 1159580);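 also: tested at 20 µM; growth read once vehicle control cultures reached saturation at 30 °C; 1 = growth at the plate median or of vehicle wells; lower values mean less growth of the strain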; details: S. cerevisiae deletion strains, growth OD, locus YOR083W, strain WHI5, stronger effect = lower value
Hit rate of the full screen: of about 5,500 compounds, about 2,000 (36%) were called active. Not shown: some 18% with an inconclusive outcome. This is one part of the list.

compound	normalized growth
CC(C)(C)NC[C@H](O)c1ccc(O)c(CO)c1	1.01
NCC(=O)c1ccccc1	0.994
CCN1CCN(C(=O)NC(C(=O)N[C@@H]2C(=O)N3[C@@H]2SC(C)(C)[C@@H]3C(=O)O)c2ccccc2)C(=O)C1=O (some centres undefined)	0.976
CN(C)CCCN1c2ccccc2Sc2ccc(C(F)(F)F)cc21	0.954
NC(=O)NC(=O)Cc1ccccc1	0.913
CN(C)CCCN1c2ccccc2Sc2ccccc21	0.971
CCCOc1ccc2nc(NC(=O)OC)[nH]c2c1	1.02
O=C(CC(=O)c1ccccc1)c1ccccc1	0.186
CCCc1cc(=O)[nH]c(=S)[nH]1	0.996
CC(=O)Oc1ccc(O)cc1	0.974
CN(C)[C@@H]1C(=O)C(C(=O)NCN2CCCC2)=C(O)[C@@]2(O)C(=O)C3=C(O)c4c(O)cccc4[C@@](C)(O)[C@H]3C[C@@H]12	0.978
CC1=CC(=O)c2ccccc2C1=O	0.882
CCCSc1ccc2nc(NC(=O)OC)[nH]c2c1	1.01
CC(C)=CCCC(C)[C@@H]1CC[C@]2(C)C3=C(CC[C@@]12C)C1(C)CC[C@H](O)C(C)(C)C1CC3 (some centres undefined)	0.994
CC(=O)Oc1cccc(O)c1	1.01
Cc1cc(=O)[nH]c(=S)[nH]1	0.964
C/C=C\C1=C(C(=O)O)N2C(=O)C(NC(=O)C(N)c3ccc(O)cc3)C2SC1 (centres undefined)	1.01
CC(=O)Oc1ccc(/C=C/c2cc(OC(C)=O)cc(OC(C)=O)c2)cc1	0.958
O=C(OCc1ccccc1)c1ccccc1	0.97
CN(C)CCCN1c2ccccc2Sc2ccc(Cl)cc21	0.0877
CS(=O)(=O)Nc1ccc([N+](=O)[O-])cc1Oc1ccccc1	0.986
O=C(OOC(=O)c1ccccc1)c1ccccc1	0.965
CCN(CC)CCOC(=O)C1(C2CCCCC2)CCCCC1	0.965
OC[C@H]1O[C@@H](O[C@H]2[C@H](O)[C@@H](O)[C@@H](O)O[C@@H]2CO)[C@H](O)[C@@H](O)[C@@H]1O	1.06

These measurements were taken from PubChem BioAssay AID1159580.
